Reference source: ChEMBL document CHEMBL3864153

assay: Antiproliferative activity against ALK constitutively activated human NCI-H3122 cells at 50 nM after 72 hrs by SRB or CCK8 assay relative to control; type: functional; details: NCI-H3122, 72 h
Observed property: inhibition at 0.05 µM (%)
One number for each entry, in %.

For every listed record, write down its inhibition at 0.05 µM.
1. CCc1cc2c(cc1N1CCN(CC3(O)CCNCC3)CC1)C(C)(C)c1[nH]c3cc(C#N)ccc3c1C2=O
2. CCc1cc2c(cc1N1CCN(CC3(O)CCOCC3)CC1)C(C)(C)c1[nH]c3cc(C#N)ccc3c1C2=O
3. CCc1cc2c(cc1N1CCN(CC(O)(CCC(=O)O)CC(=O)O)CC1)C(C)(C)c1[nH]c3cc(C#N)ccc3c1C2=O (centres undefined)
4. CCc1cc2c(cc1N1CCN(CC3(O)CCCCC3)CC1)C(C)(C)c1[nH]c3cc(C#N)ccc3c1C2=O

A:
[5, 80, 3, 40]
